- Test system: Yellow foxtail grass (YF)
- assay text: Pre-emergence herbicide test
- Format: in vivo, Setaria glauca
- setup conditions: Setaria, 336 h, 4 lb/acre, two weeks after treatment

- compound: "CNC(=O)N(C)c1nnc(C(F)(F)F)s1 [Example 36]"
  pest or weed control at 4483.4 g/ha [%]: 90
- compound: "CN(C)C(=O)N(C)c1nnc(C(F)(F)F)s1 [Example 4]"
  pest or weed control at 4483.4 g/ha [%]: 80
- compound: "CCN(C(=O)NC)c1nnc(C(F)(F)F)s1 [Example 37]"
  pest or weed control at 4483.4 g/ha [%]: 80
- compound: "CNC(=O)N(C)c1nnc(C(C)(C)C)s1 [Example 42]"
  pest or weed control at 4483.4 g/ha [%]: 80
- compound: "CNC(=O)Nc1nnc(C(F)(F)F)s1 [Example 1]"
  pest or weed control at 4483.4 g/ha [%]: 80
- compound: "CN(C)C(=O)N(C)c1nnc(C(C)(C)C)s1 [Example 43]"
  pest or weed control at 4483.4 g/ha [%]: 100
- compound: "CNC(=O)Nc1nnc(S(C)(=O)=O)s1 [Example 33]"
  pest or weed control at 4483.4 g/ha [%]: 90
